test system: ZR-75-1; assay: Antiproliferative activity against human ZR-75-1 cells assessed as inhibition of cell growth at 10 uM incubated for 48 hrs by MTT assay; type: functional
The following compounds are shown together with reported inhibition at 10 µM values.
The answer is to be given in %; state only the numeric part.

Guide cases for inhibition at 10 µM, answers given:
>  <line_notation>
COc1cc(-n2cnc(-c3cccc(O)c3)n2)cc(OC)c1OC

>  <target_of_assay>
ZR-75-1

>  <inhibition at 10 µM (%)>
8.54

$$$$
>  <line_notation>
COc1ccc(-n2cnc(-c3ccc(Cl)cc3)n2)cc1OC

>  <target_of_assay>
ZR-75-1

>  <inhibition at 10 µM (%)>
0

$$$$

Task: Param item = COc1ccc(-c2ncn(-c3ccccc3)n2)cc1 ; retrieve measured inhibition at 10 µM.
Output: 0

Task: Param item = COc1cc(-n2cnc(-c3ccc4nc[nH]c4c3)n2)cc(OC)c1OC ; retrieve measured inhibition at 10 µM.
Output: 21.2

Task: Param item = COc1ccc(-c2ncn(-c3cc(OC)c(OC)c(OC)c3)n2)cn1 ; retrieve measured inhibition at 10 µM.
Output: 4.95

Task: Param item = COc1cc(-n2cnc(-c3cccc(C(F)(F)F)c3)n2)cc(OC)c1OC ; retrieve measured inhibition at 10 µM.
Output: 2.39

Task: Param item = COc1cc(-n2cnc(-c3cccc(N)c3)n2)cc(OC)c1OC ; retrieve measured inhibition at 10 µM.
Output: 12.1

Task: Param item = COc1ccc(-c2ncn(-c3cc(OC)c(OC)c(OC)c3)n2)cc1F ; retrieve measured inhibition at 10 µM.
Output: 6.41

Origin of the recorded values: ChEMBL document CHEMBL6083223
